Biological target: Dihydroorotate dehydrogenase (quinone), mitochondrial [30-395] (Homo sapiens)
Construct: 30-395
Sequence (Q02127 30-395): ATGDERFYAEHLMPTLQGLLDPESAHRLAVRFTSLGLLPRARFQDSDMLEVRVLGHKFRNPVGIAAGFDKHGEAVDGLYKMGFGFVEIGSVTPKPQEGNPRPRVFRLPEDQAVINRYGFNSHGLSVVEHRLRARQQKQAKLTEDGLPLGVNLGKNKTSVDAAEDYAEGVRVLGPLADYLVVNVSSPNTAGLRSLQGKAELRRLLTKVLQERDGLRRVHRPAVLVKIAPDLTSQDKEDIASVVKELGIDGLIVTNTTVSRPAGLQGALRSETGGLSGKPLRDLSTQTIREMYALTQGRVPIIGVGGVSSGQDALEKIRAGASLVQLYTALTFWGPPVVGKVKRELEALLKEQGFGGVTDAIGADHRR
Assay: DHODH Inhibition Assay
Protocol: The assays were carried out by using a colorimetric DCIP method, which uses the colorimetric reagent 2, 6-dichlorophenolindophenol as the final electron acceptor. DCIP reduction is stoichiometrically equivalent to oxidation of dihydroorotate. Changes in absorbance were quantified on a plate reader and data were analyzed to measure the reduction of DCIP as a decrease in absorbance at 600 nm. […]
pIC50: −log10 of the molar value.
Kindly return label 1 if reported pIC50 is no lower than 4; return label 0 if it is lower.

compound-smiles: Cc1c(C(=O)Nc2cccc(C(F)(F)F)c2)cccc1[N+](=O)[O-]
class: label 0
--
compound-smiles: O=C(Nc1ccccc1F)c1ccc2ccccc2c1
class: label 1
--
compound-smiles: Cc1c(C(=O)Nc2ccc(Cl)c(Cl)c2)cccc1[N+](=O)[O-]
class: label 1
--
compound-smiles: Cc1c(C(=O)Nc2cc(Cl)cc(Cl)c2)cccc1[N+](=O)[O-]
class: label 0
--
compound-smiles: Cc1c(C(=O)Nc2ccc(F)c(F)c2)cccc1[N+](=O)[O-]
class: label 0
--
compound-smiles: Cc1cc(Br)ccc1NC(=O)c1ccc2ccccc2c1
class: label 0
--
compound-smiles: O=C(Nc1ccccc1C(F)(F)F)Nc1cccc2ccccc12
class: label 0

----------
Entries annotated with measured IC50
target: Dihydroorotate dehydrogenase (quinone), mitochondrial [R265A] (Plasmodium falciparum, UniProt Q54A96, R265A); experiment: DHODH Inhibition Assay

compound-smiles: Cc1cc(Br)ccc1NC(=O)c1ccc2ccccc2c1
IC50, nM: 50

compound-smiles: O=C(Nc1ccccc1F)c1ccc2ccccc2c1
IC50, nM: 300

compound-smiles: O=C(Nc1ccc(Cl)cc1Cl)c1ccc2ccccc2c1
IC50, nM: 80

compound-smiles: Cc1c(C(=O)Nc2cccc3ccccc23)cccc1[N+](=O)[O-]
IC50, nM: 480

compound-smiles: Cc1c(C(=O)Nc2ccc(F)c(Cl)c2)cccc1[N+](=O)[O-]
IC50, nM: 500

compound-smiles: O=C(Nc1ccccc1C(F)(F)F)Nc1cccc2ccccc12
IC50, nM: 340

compound-smiles: Cc1c(C(=O)Nc2ccc(F)c(F)c2)cccc1[N+](=O)[O-]
IC50, nM: 820

compound-smiles: Cc1c(C(=O)Nc2cccc(Br)c2)cccc1[N+](=O)[O-]
IC50, nM: 1200

compound-smiles: O=C(Nc1ccc(Cl)cc1)Nc1cccc2cccnc12
IC50, nM: 2000

compound-smiles: COc1ccccc1NC(=O)Nc1cccc2ccccc12
IC50, nM: 240

compound-smiles: Cc1c(C(=O)Nc2ccc(Cl)c(Cl)c2)cccc1[N+](=O)[O-]
IC50, nM: 2800

compound-smiles: Cc1c(C(=O)Nc2cc(Cl)cc(Cl)c2)cccc1[N+](=O)[O-]
IC50, nM: 400

compound-smiles: Cc1c(C(=O)Nc2cccc(C(F)(F)F)c2)cccc1[N+](=O)[O-]
IC50, nM: 370

----------
Target: UniProt Q54A96
Sequence (Q54A96 whole entry): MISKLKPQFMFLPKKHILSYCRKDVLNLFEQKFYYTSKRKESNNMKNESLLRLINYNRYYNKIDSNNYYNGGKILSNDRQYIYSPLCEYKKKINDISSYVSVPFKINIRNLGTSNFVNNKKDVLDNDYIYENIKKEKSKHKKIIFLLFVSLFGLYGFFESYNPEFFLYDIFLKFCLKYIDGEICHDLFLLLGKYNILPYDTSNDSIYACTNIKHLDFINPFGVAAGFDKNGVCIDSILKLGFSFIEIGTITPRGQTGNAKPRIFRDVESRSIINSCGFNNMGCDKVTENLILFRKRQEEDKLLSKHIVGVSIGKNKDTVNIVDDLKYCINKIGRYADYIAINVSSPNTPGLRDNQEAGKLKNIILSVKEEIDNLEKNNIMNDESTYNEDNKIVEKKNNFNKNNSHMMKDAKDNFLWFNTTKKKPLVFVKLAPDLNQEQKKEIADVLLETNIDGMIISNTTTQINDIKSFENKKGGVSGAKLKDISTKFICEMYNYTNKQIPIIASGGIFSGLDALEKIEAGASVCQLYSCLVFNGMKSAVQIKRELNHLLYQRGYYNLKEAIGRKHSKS
Please assign false whenever IC50 is at or above 80 nM, and true whenever it is below.

compound-smiles: Cc1c(C(=O)Nc2cc(Cl)cc(Cl)c2)cccc1[N+](=O)[O-]
measured-on: UniProt Q54A96
class: true

compound-smiles: O=C(Nc1ccc(Cl)cc1Cl)c1ccc2ccccc2c1
measured-on: UniProt Q54A96
class: true

compound-smiles: COc1ccccc1NC(=O)Nc1cccc2ccccc12
measured-on: UniProt Q54A96
class: false

compound-smiles: Cc1c(C(=O)Nc2ccc(F)c(Cl)c2)cccc1[N+](=O)[O-]
measured-on: UniProt Q54A96
class: false

compound-smiles: O=C(Nc1ccccc1F)c1ccc2ccccc2c1
measured-on: UniProt Q54A96
class: false

compound-smiles: Cc1cc(Br)ccc1NC(=O)c1ccc2ccccc2c1
measured-on: UniProt Q54A96
class: true

compound-smiles: O=C(Nc1ccccc1C(F)(F)F)Nc1cccc2ccccc12
measured-on: UniProt Q54A96
class: false

compound-smiles: Cc1c(C(=O)Nc2ccc(F)c(F)c2)cccc1[N+](=O)[O-]
measured-on: UniProt Q54A96
class: false

compound-smiles: Cc1c(C(=O)Nc2cccc(Br)c2)cccc1[N+](=O)[O-]
measured-on: UniProt Q54A96
class: true

compound-smiles: O=C(Nc1ccc(Cl)cc1)Nc1cccc2cccnc12
measured-on: UniProt Q54A96
class: false

----------
biological target: Dihydroorotate dehydrogenase (quinone), mitochondrial [30-395] (Homo sapiens)

compound: Cc1c(C(=O)Nc2ccc(F)c(Cl)c2)cccc1[N+](=O)[O-]
unit-abbrev: µM
inequality-sign: =
IC50: 116
//
compound: COc1ccccc1NC(=O)Nc1cccc2ccccc12
unit-abbrev: µM
inequality-sign: =
IC50: 112
//
compound: O=C(Nc1ccc(Cl)cc1)Nc1cccc2cccnc12 [3-(4-chlorophenyl)-1-quinolin-8-ylurea]
unit-abbrev: µM
inequality-sign: =
IC50: 116
//
compound: O=C(Nc1ccc(Cl)cc1Cl)c1ccc2ccccc2c1
unit-abbrev: µM
inequality-sign: >
IC50: 50
//
compound: Cc1c(C(=O)Nc2cccc(Br)c2)cccc1[N+](=O)[O-]
unit-abbrev: µM
inequality-sign: =
IC50: 105
//
compound: Cc1c(C(=O)Nc2cccc3ccccc23)cccc1[N+](=O)[O-]
unit-abbrev: µM
inequality-sign: =
IC50: 100

----------
molecular target: Dihydroorotate dehydrogenase (quinone), mitochondrial (Plasmodium falciparum, UniProt Q54A96); test: DHODH Inhibition Assay; conditions: pH 8; 22 °C
pIC50: −log10 of the molar value.
Some molecules, each annotated with its measured pIC50.

compound-smiles: Cc1c(C(=O)Nc2cccc(C(F)(F)F)c2)cccc1[N+](=O)[O-]
pIC50: 7.10
//
compound-smiles: Cc1c(C(=O)Nc2cccc3ccccc23)cccc1[N+](=O)[O-]
pIC50: 7.10
//
compound-smiles: Cc1c(C(=O)Nc2ccc(Cl)c(Cl)c2)cccc1[N+](=O)[O-]
pIC50: 7.10

Origin of values: BindingDB's records for doi:10.1074/jbc.M501100200
